Assay Name: Lipophilicity, logD7.4 by HPLC method (Donovan and Pescatore)
Assay type: physicochemical
Protocol Conditions: HPLC column ODP-50 4B (Shodex Asahipak 50 × 4.6 mm); pH 7.4, HPLC system 2, MeOH/PBS gradient
Please note: 1.0 applies when chromatographic logD is 4 or greater, and 0.0 applies otherwise.

{"Compound String": "CCC(=O)NS(=O)(=O)c1ccc(-c2c(-c3ccc(C)cc3)c3cccc4ccn2c43)cc1", "Class Label": 0.0}

// next entry
Request: Please tell me: is the compound NS(=O)(=O)c1ccc(-c2c(-c3ccccc3)c3cccc4ccn2c43)cc1 at or over 4 in terms of chromatographic logD?
Result: 1.0

---

Parameter melting point: see the listing below.

// worked examples, melting point included
{"Compound String": "NS(=O)(=O)c1ccc(-c2c(-c3ccc(Cl)cc3)c3cccc4ccn2c43)cc1", "melting point": "270 to 273 °C"}
{"Compound String": "NS(=O)(=O)c1ccc(-c2c(-c3ccc(F)cc3)c3cccc4ccn2c43)cc1", "melting point": "258 to 259 °C"}
{"Compound String": "Cc1ccc(-c2c(-c3ccc(S(N)(=O)=O)cc3)n3ccc4cccc2c43)cc1", "melting point": "233 to 235 °C"}

API: the following record is the query input.
Request: Look up melting point: NS(=O)(=O)c1ccc(-c2c(-c3ccccc3)c3cccc4ccn2c43)cc1
Result: 218 to 220 °C

---

Here we list compounds with their recorded pIC50 when tested on human COX-2 (Homo sapiens).
Sequence (P35354 18-604): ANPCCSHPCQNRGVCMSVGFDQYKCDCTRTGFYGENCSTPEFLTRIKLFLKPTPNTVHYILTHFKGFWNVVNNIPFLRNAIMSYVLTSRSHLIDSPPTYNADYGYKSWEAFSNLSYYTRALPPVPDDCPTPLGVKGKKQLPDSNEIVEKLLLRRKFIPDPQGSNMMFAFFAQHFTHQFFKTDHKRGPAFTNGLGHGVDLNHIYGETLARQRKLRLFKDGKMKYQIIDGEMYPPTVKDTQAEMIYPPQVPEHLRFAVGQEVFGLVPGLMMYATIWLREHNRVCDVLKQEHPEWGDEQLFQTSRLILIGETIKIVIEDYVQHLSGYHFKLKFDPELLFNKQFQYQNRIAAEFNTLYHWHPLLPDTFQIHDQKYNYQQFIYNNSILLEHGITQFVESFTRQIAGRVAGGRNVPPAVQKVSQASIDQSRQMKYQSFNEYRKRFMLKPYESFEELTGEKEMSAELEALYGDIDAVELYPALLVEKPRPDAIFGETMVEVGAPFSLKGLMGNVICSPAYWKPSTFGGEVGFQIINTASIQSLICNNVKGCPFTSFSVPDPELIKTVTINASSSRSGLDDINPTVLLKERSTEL
Convention used: pIC50 is expressed as -log10 of the molar concentration.

// worked examples, pIC50 included
{"Compound": "CCC(=O)NS(=O)(=O)c1ccc(-c2c(-c3ccc(Cl)cc3)c3cccc4c3n2CC4)cc1 [3c]", "pIC50": 4.58}
{"Compound": "CCC(=O)NS(=O)(=O)c1ccc(-c2c(-c3ccc(C)cc3)c3cccc4ccn2c43)cc1 [4b]", "pIC50": 4.47}

Request: Look up pIC50: NS(=O)(=O)c1ccc(-c2c(-c3ccccc3)c3cccc4c3n2CC4)cc1 [1a]
Result: 6.97

Request: Look up pIC50: Cc1ccc(-c2c(-c3ccc(S(N)(=O)=O)cc3)n3c4c(cccc24)CC3)cc1 [1b]
Result: 6.60

Request: Look up pIC50: NS(=O)(=O)c1ccc(-c2c(-c3ccccc3)c3cccc4ccn2c43)cc1 [2a]
Result: 7.28

---

Parameter pIC50: see the listing below.
Study Target: ovine COX-1 (Ovis aries)
Sequence (P05979 25-600): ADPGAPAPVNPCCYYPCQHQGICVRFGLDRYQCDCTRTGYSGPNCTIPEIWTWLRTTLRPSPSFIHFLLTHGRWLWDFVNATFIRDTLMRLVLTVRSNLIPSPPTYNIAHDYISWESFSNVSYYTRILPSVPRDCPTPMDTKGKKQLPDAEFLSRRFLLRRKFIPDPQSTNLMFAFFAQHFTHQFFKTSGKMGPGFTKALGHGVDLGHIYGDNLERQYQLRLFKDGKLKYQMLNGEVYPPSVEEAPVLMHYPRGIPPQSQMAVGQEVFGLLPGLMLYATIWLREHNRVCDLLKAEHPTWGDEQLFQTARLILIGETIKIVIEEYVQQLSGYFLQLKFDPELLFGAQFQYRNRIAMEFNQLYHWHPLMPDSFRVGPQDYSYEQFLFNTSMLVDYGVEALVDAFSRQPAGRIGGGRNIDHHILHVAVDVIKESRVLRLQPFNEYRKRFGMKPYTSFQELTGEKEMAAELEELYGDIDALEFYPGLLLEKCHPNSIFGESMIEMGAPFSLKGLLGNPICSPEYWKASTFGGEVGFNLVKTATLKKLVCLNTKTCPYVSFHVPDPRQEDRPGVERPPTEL
pIC50: −log10 of the molar value.

{"Compound String": "CCC(=O)NS(=O)(=O)c1ccc(-c2c(-c3ccccc3)c3cccc4c3n2CC4)cc1", "pIC50": "< 4.00"}
{"Compound String": "CCC(=O)NS(=O)(=O)c1ccc(-c2c(-c3ccc(C)cc3)c3cccc4c3n2CC4)cc1", "pIC50": "< 4.00"}
{"Compound String": "CCC(=O)NS(=O)(=O)c1ccc(-c2c(-c3ccc(Cl)cc3)c3cccc4ccn2c43)cc1", "pIC50": "< 4.00"}

API: the following record is the query input.
Request: Look up pIC50: Cc1ccc(-c2c(-c3ccc(S(N)(=O)=O)cc3)n3c4c(cccc24)CC3)cc1
Result: 4.22

---

Assay Name: Lipophilicity, logD7.4 by HPLC method (Donovan and Pescatore)
Format: physicochemical
Protocol Conditions: HPLC column ODP-50 4B (Shodex Asahipak 50 × 4.6 mm); pH 7.4, HPLC system 2, MeOH/PBS gradient
Parameter chromatographic logD: see the listing below.

{"Molecule": "NS(=O)(=O)c1ccc(-c2c(-c3ccccc3)c3cccc4c3n2CC4)cc1 [1a]", "chromatographic logD": 4.44}
{"Molecule": "NS(=O)(=O)c1ccc(-c2c(-c3ccc(Cl)cc3)c3cccc4ccn2c43)cc1 [2c]", "chromatographic logD": 4.89}
{"Molecule": "CCC(=O)NS(=O)(=O)c1ccc(-c2c(-c3ccc(F)cc3)c3cccc4c3n2CC4)cc1 [3d]", "chromatographic logD": 2.2}
{"Molecule": "CCC(=O)NS(=O)(=O)c1ccc(-c2c(-c3ccc(C)cc3)c3cccc4c3n2CC4)cc1 [3b]", "chromatographic logD": 2.31}

Request: Look up chromatographic logD: CCC(=O)NS(=O)(=O)c1ccc(-c2c(-c3ccc(Cl)cc3)c3cccc4ccn2c43)cc1 [4c]
Result: 2.6

Request: Look up chromatographic logD: Cc1ccc(-c2c(-c3ccc(S(N)(=O)=O)cc3)n3ccc4cccc2c43)cc1 [2b]
Result: 4.73

Request: Look up chromatographic logD: CCC(=O)NS(=O)(=O)c1ccc(-c2c(-c3ccc(Cl)cc3)c3cccc4c3n2CC4)cc1 [3c]
Result: 2.49
